Target: ^14C-Acetat-Einbau in die mit Digitonin fällbaren Steroide (Homo sapiens)
Assay: Inhibition of 14C-acetate incorporation into digitonin-precipitable steroids
Type: cell-based
Conditions: Testkonzentration 10^-8 Mol/l; read-out: Prozentwerte, um die die Verbindungen den ^14C-Acetat-Einbau hemmen
value.type: inhibition at 0.01 µM (%)
Provide only the numeric value, understood in %.

Worked cases, inhibition at 0.01 µM given:
[
  {
    "compound": "CN(C)Cc1ccc([C@H]2CC[C@H](N(C)C(=O)c3ccc(Cl)cc3)CC2)cc1 [V, reference compound]",
    "experimental.target": "^14C-Acetat-Einbau in die mit Digitonin fällbaren Steroide (Homo sapiens)",
    "measured.value": 59
  },
  {
    "compound": "CN(C)Cc1ccc(CC2CCN(C(=S)Oc3ccc(Cl)cc3)CC2)cc1 [G]",
    "experimental.target": "^14C-Acetat-Einbau in die mit Digitonin fällbaren Steroide (Homo sapiens)",
    "measured.value": 83
  },
  {
    "compound": "CN(C)Cc1ccc(SC2CCN(C(=S)SCc3ccccc3)CC2)cc1.Cl [Verbindung A]",
    "experimental.target": "^14C-Acetat-Einbau in die mit Digitonin fällbaren Steroide (Homo sapiens)",
    "measured.value": 85
  },
  {
    "compound": "CN(C)Cc1ccc(CC2CCN(C(=S)SCc3ccccc3)CC2)cc1.Cl [E]",
    "experimental.target": "^14C-Acetat-Einbau in die mit Digitonin fällbaren Steroide (Homo sapiens)",
    "measured.value": 87
  },
  {
    "compound": "Cc1ccc(OC(=S)N2CCC(Cc3ccc(CN(C)C)cc3)CC2)cc1.Cl [L]",
    "experimental.target": "^14C-Acetat-Einbau in die mit Digitonin fällbaren Steroide (Homo sapiens)",
    "measured.value": 88
  },
  {
    "compound": "CN(C)Cc1ccc(SC2CCN(C(=O)OCc3ccccc3)CC2)cc1.Cl [C]",
    "experimental.target": "^14C-Acetat-Einbau in die mit Digitonin fällbaren Steroide (Homo sapiens)",
    "measured.value": 78
  },
  {
    "compound": "Cc1ccc(CC(=O)O[C@H]2CC[C@H](c3ccc(CN(C)C)cc3)CC2)cc1 [W, reference compound]",
    "experimental.target": "^14C-Acetat-Einbau in die mit Digitonin fällbaren Steroide (Homo sapiens)",
    "measured.value": 72
  },
  {
    "compound": "CN(C)Cc1ccc(C(=O)C2CCN(C(=S)SCc3ccccc3)CC2)cc1.Cl [B]",
    "experimental.target": "^14C-Acetat-Einbau in die mit Digitonin fällbaren Steroide (Homo sapiens)",
    "measured.value": 85
  }
]

Annotate the compound CN(C)Cc1ccc(C=C2CCN(C(=S)SCc3ccccc3)CC2)cc1.Cl [F] with its measured inhibition at 0.01 µM.
84

Annotate the compound CN(C)Cc1ccc(CC2CCN(C(=O)OCc3ccccc3)CC2)cc1.Cl [Verbindung I] with its measured inhibition at 0.01 µM.
85

----------
Catalogue of MIC values
Tested on: Pen.notatum CBS 19746
Experiment: Fungistatic effect, serial dilution test (microtitre system)
Assay type: cell-based
Details: Penicillium chrysogenum, CBS19746, read-out: MHK
Provide only the numeric value, understood in µg/mL.

[
  {
    "molecule": "CN(C)Cc1ccc(CC2CCN(C(=O)Oc3ccc(Cl)cc3)CC2)cc1 [Verbindung H]",
    "MIC / µg/mL": 64
  },
  {
    "molecule": "CN(C)Cc1ccc(SC2CCN(C(=O)Oc3ccc(Cl)cc3)CC2)cc1 [D]",
    "MIC / µg/mL": 128
  }
]

Annotate the molecule Cc1ccc(OC(=O)N2CCC(Cc3ccc(CN(C)C)cc3)CC2)cc1.Cl [K] with its measured MIC.
256

Annotate the molecule CN(C)Cc1ccc(CC2CCN(C(=O)Oc3ccc(F)cc3)CC2)cc1 [M] with its measured MIC.
512

----------
Catalogue of inhibition at 0.001 µM values
Target: ^14C-Acetat-Einbau in die mit Digitonin fällbaren Steroide (Homo sapiens, UniProt P48449)
Sequence (P48449 2-732): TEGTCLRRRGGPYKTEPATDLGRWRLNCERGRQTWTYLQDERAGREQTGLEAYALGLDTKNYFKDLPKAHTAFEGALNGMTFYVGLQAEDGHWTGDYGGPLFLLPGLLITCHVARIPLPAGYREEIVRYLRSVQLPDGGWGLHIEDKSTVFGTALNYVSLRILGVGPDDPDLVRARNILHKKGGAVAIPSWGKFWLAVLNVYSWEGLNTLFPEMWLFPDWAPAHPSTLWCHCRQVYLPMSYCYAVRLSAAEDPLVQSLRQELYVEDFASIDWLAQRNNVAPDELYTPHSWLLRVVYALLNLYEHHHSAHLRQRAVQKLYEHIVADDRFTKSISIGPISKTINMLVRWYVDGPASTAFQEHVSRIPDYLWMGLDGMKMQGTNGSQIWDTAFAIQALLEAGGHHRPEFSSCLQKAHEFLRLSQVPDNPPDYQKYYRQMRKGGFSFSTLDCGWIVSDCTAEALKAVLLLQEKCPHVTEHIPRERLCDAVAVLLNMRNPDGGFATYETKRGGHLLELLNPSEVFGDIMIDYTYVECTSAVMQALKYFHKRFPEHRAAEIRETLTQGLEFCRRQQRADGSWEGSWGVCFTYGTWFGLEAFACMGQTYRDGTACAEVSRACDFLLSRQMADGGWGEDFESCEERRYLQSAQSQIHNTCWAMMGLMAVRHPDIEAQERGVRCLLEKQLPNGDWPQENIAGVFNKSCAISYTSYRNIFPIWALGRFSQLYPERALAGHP
Experiment: Inhibition of 14C-acetate incorporation into digitonin-precipitable steroids
Type: cell-based
Settings: read-out: Prozentwerte, um die die Verbindungen den ^14C-Acetat-Einbau hemmen
Excerpt: I. Messung der Hemmung des ^14C-Acetat-Einbaus in die mit Digitonin fällbaren Steroide: Die Untersuchung der Hemmwirkung wurde nach der in J. Lipid. Res. 37, 148-157 [1996] beschriebenen Methode bei Testkonzentrationen von 10^-8 und 10^-9 Mol/l durchgeführt. Die Prozentwerte, um die obigen Verbindungen den ^14C-Acetat-Einbau hemmen, sind in Tabelle 1 angegeben.
Provide only the numeric value, understood in %.

Worked cases, inhibition at 0.001 µM given:
[
  {
    "structure.smiles": "CN(C)Cc1ccc(CC2CCN(C(=O)Oc3ccc(F)cc3)CC2)cc1",
    "experimental.target": "^14C-Acetat-Einbau in die mit Digitonin fällbaren Steroide (Homo sapiens, UniProt P48449)",
    "inhibition at 0.001 µM (%)": 59
  },
  {
    "structure.smiles": "Cc1ccc(OC(=O)N2CCC(Cc3ccc(CN(C)C)cc3)CC2)cc1.Cl",
    "experimental.target": "^14C-Acetat-Einbau in die mit Digitonin fällbaren Steroide (Homo sapiens, UniProt P48449)",
    "inhibition at 0.001 µM (%)": 49
  }
]

Fetch value of inhibition at 0.001 µM on ^14C-Acetat-Einbau in die mit Digitonin fällbaren Steroide (Homo sapiens, UniProt P48449) for CN(C)Cc1ccc(CC2CCN(C(=O)Oc3ccc(Cl)cc3)CC2)cc1 .
45

Fetch value of inhibition at 0.001 µM on ^14C-Acetat-Einbau in die mit Digitonin fällbaren Steroide (Homo sapiens, UniProt P48449) for CN(C)Cc1ccc(SC2CCN(C(=O)Oc3ccc(Cl)cc3)CC2)cc1 .
55

----------
Tested on: Cand. albicans ATCC 10231
Experiment: Fungistatic effect, serial dilution test (microtitre system)
Type: cell-based
Conditions: Candida albicans, ATCC10231; Cand.; Sabouraud-Bouillon, 2 bis 4 Tage bei 26°C; read-out: MHK
Procedure: IV. Bestimmung der fungistatischen Wirkung Die fungistatische Wirkung wurde über den Reihenverdünnungstest (Mikrotitersystem) bestimmt. Als Nährmedium diente Sabouraud-Bouillon. Das Inoculum betrug ca. 10^4 bis 10^5 KBE/ml (KBE = koloniebildende Einheiten); die Bebrütungszeit betrug 2 bis 4 Tage bei 26°C. Es wurde die niedrigste Konzentration, die sichtbares Wachstum nicht mehr zuließ (minimale Hemmkonzentration MHK), bestimmt. […]
value.type: MIC (µg/mL)
Provide only the numeric value, understood in µg/mL.

Worked cases, MIC given:
[
  {
    "molecule": "Cc1ccc(OC(=S)N2CCC(Cc3ccc(CN(C)C)cc3)CC2)cc1.Cl [L]",
    "MIC / µg/mL": 32
  },
  {
    "molecule": "CN(C)Cc1ccc(C=C2CCN(C(=S)SCc3ccccc3)CC2)cc1.Cl [F]",
    "MIC / µg/mL": 16
  }
]

Annotate the molecule CN(C)Cc1ccc(SC2CCN(C(=S)SCc3ccccc3)CC2)cc1.Cl [Verbindung A] with its measured MIC.
16

Annotate the molecule CN(C)Cc1ccc(CC2CCN(C(=O)OCc3ccccc3)CC2)cc1.Cl [Verbindung I] with its measured MIC.
256

Annotate the molecule CN(C)Cc1ccc(CC2CCN(C(=S)SCc3ccccc3)CC2)cc1.Cl [E] with its measured MIC.
16

Annotate the molecule CN(C)Cc1ccc(C(=O)C2CCN(C(=S)SCc3ccccc3)CC2)cc1.Cl [B] with its measured MIC.
64
